Assay: P. aeruginosa biofilm formation inhibitors, primary screen, PAO1 strain, BacTiter-Glo luminescence, LB-PBS (AID 1144)
Conditions: 12 h, higher = more signal
Quick rule: z-score of at least -0.1 means condition met, below that means condition not met.

[
  {
    "MOLECULE": "O=C1NC(=O)C2C1C=CC(C(O)c1ccccc1)N2Nc1ccc(Cl)cc1Cl (configuration not stated)",
    "CLASS": "condition not met"
  },
  {
    "MOLECULE": "CC(=O)n1cc(C(O)C2C=CC3C(=O)N(C)C(=O)C3N2Nc2ccccc2)c2ccccc21 (configuration not stated)",
    "CLASS": "condition not met"
  },
  {
    "MOLECULE": "C=CCNC(=O)[C@@H]1[C@H]2C(=O)O[C@H](c3ccccc3)[C@H](c3ccccc3)N2[C@H](c2ccc(OCCO)cc2)[C@@]12C(=O)Nc1ccc(C#Cc3ccc(OC)cc3)cc12",
    "CLASS": "condition not met"
  },
  {
    "MOLECULE": "[N-]=[N+]=NCc1ccccc1C[C@@]1(C(=O)NCC(O)CO)N=C(c2ccc(OCCCO)cc2)O[C@@H]1c1ccccc1N=[N+]=[N-] (some centres not stated)",
    "CLASS": "condition not met"
  },
  {
    "MOLECULE": "CC(C)C(=C=CC[C@@H](O)c1ccccc1OCCO)CCO",
    "CLASS": "condition met"
  },
  {
    "MOLECULE": "COc1ccc([Si](C)(C)[C@H]2[C@H](CC(=O)N3CCC[C@H]3CO)O[C@@]3(C(=O)N(Cc4cccc(N5C(=O)c6cccc7cccc5c67)c4)c4ccccc43)[C@@H]2C)cc1",
    "CLASS": "condition met"
  },
  {
    "MOLECULE": "COc1cc2c(cc1O)C=[N+](Cc1cccc(OC(F)(F)F)c1)CC2",
    "CLASS": "condition not met"
  }
]

====

Test system: Wnt5a (protein binding on small-molecule microarray)
Test: Wnt5a binders on small-molecule microarray, primary screen, biophysical, 635/667 nm fluorescence (AID 1142);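 note: fluorescence read at 667 nm with signal to noise per printed feature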
Conditions: 635 nm fluorescence, higher = more signal
Items are presented alongside their recorded composite z-score.

[
  {
    "COMPOUND": "CC(=O)NCCCC[C@@H]1NC(=O)[C@@H]2C[C@H](C(=O)NCCCCCCNC(=O)CS)[C@H](c3cccc(OCCO)c3)N2C1=O",
    "composite z-score": 0.611
  },
  {
    "COMPOUND": "CC(C)C[C@H]1NC(=O)[C@@]23C(=O)N[C@@H](Cc4ccccc4)C2[C@H](C)[C@@]2(C)O[C@H]2C3/C=C/C/C=C\\CNC(=O)[C@H](Cc2ccccc2)NC1=O (stereo partly specified)",
    "composite z-score": 0.234
  },
  {
    "COMPOUND": "CCCCN1CC=CC23O[C@@H]4C=CCOC(=O)[C@@H]4[C@H]2C(=O)N(CCCCCO)[C@@H]3C1=O (stereo partly specified)",
    "composite z-score": -0.103
  },
  {
    "COMPOUND": "O=C(C1N=C(c2ccc(OCCCO)cc2)N(c2ccccc2)O1)N1CCOCC1 (stereo unspecified)",
    "composite z-score": 0.427
  },
  {
    "COMPOUND": "COCCCNC(=O)C1N=C(c2ccc(OCCCO)cc2)N(c2ccccc2)O1 (stereo unspecified)",
    "composite z-score": 0.282
  },
  {
    "COMPOUND": "NCCCCCNC(=O)[C@@H]1C[C@@H]2C(=O)NCC(=O)N2[C@@H]1c1ccc(O)cc1",
    "composite z-score": 0.892
  },
  {
    "COMPOUND": "O=C(NCc1ccc(F)cc1)[C@H]1C[C@H]2C(=O)N[C@@H](Cc3ccccc3)C(=O)N2[C@H]1c1ccc(O)cc1",
    "composite z-score": -0.0011
  },
  {
    "COMPOUND": "COc1ccc(COC2OC[C@]3(C)[C@H]4C5=C(CN3C(=O)OC(C)(C)C)[C@H](C)C(CO)C(CO)C5CC[C@@H]24)cc1 (stereo partly specified)",
    "composite z-score": 0.0447
  },
  {
    "COMPOUND": "COCCCNC(=O)[C@@]1(Cc2ccccc2N=[N+]=[N-])N=C(c2ccc(OCCCO)cc2)O[C@H]1c1ccccc1N=[N+]=[N-]",
    "composite z-score": 0.266
  },
  {
    "COMPOUND": "COCCOC(=O)N1C(=O)[C@@]2(c3cc(C#Cc4ccc(OC)cc4)ccc31)[C@H](c1ccccc1OCCO)N1[C@H](c3ccccc3)[C@H](c3ccccc3)OC(=O)[C@H]1[C@@H]2C(=O)N1CCN(c2ncccn2)CC1",
    "composite z-score": 0.418
  },
  {
    "COMPOUND": "O=C1OCCC/C=C\\[C@H]2OC34C=CCN(CCN5CCOCC5)C(=O)[C@H]3N(CCCO)C(=O)[C@@H]4C12 (stereo partly specified)",
    "composite z-score": -0.196
  }
]

====

Test system: Lefty1
Test: Lefty1 binders on small-molecule microarrays, primary screen, biochemical, small-molecule microarray, 635/667 nm fluorescence (AID 1139)
Details: small-molecule microarray binding, fluorescence 635/667; higher = more signal

[
  {
    "COMPOUND": "C=CCOC(=O)[C@H]1[C@@H]2C(=O)O[C@@H](c3ccccc3)[C@@H](c3ccccc3)N2[C@@H](c2ccc(OCCOC(=O)[C@H]3C[C@H]4C(=O)N5CCC[C@H]5C(=O)N4[C@H]3c3ccc(O)cc3)cc2)[C@]12C(=O)Nc1ccc(I)cc12",
    "SYSTEM": "Lefty1",
    "composite z-score": 1.54
  },
  {
    "COMPOUND": "CCOC(=O)C=Cc1cc([N+](=O)[O-])ccc1O",
    "SYSTEM": "Lefty1",
    "composite z-score": -0.83
  },
  {
    "COMPOUND": "C=C(COC)/C(=C/C[C@H](OC(=O)c1ccncc1)c1ccc(OCCO)cc1)c1cnc2ccccc2c1",
    "SYSTEM": "Lefty1",
    "composite z-score": 1.33
  },
  {
    "COMPOUND": "COCCOC(=O)N1C(=O)[C@@]2(c3ccccc31)[C@H](c1ccc(O)cc1)N1[C@H](c3ccccc3)[C@H](c3ccccc3)OC(=O)[C@H]1[C@@H]2C(=O)NC[C@H](O)c1ccccc1",
    "SYSTEM": "Lefty1",
    "composite z-score": 0.282
  },
  {
    "COMPOUND": "COC(=O)[C@@]1(Cc2ccccc2)[C@H]2c3cc(C(=O)N4CCCC4)n(CC4CC4)c3C[C@H]2CN1C(=O)c1ccccc1",
    "SYSTEM": "Lefty1",
    "composite z-score": 0.206
  },
  {
    "COMPOUND": "C=CCOC(=O)[C@H]1[C@@H]2C(=O)O[C@@H](c3ccccc3)[C@@H](c3ccccc3)N2[C@@H](c2ccc(OCCOC(=O)[C@H]3C[C@H]4C(=O)N5CCC[C@H]5C(=O)N4[C@H]3c3ccc(O)cc3)cc2)[C@]12C(=O)Nc1ccccc12",
    "SYSTEM": "Lefty1",
    "composite z-score": 1.42
  },
  {
    "COMPOUND": "CCOC(=O)C[C@H]1[C@H](OC(=O)Cc2ccc3c(c2)OCO3)[C@@H](NC(=O)c2ccc(-c3ccccc3)cc2)c2cc(OCCCO)ccc2N1C(=O)Cc1ccc(OC)cc1",
    "SYSTEM": "Lefty1",
    "composite z-score": 0.475
  },
  {
    "COMPOUND": "C=CCOC(=O)[C@@H]1[C@H]2C(=O)O[C@H](c3ccccc3)[C@H](c3ccccc3)N2[C@H](c2ccc(OCCOC(=O)[C@@H]3C[C@@H]4C(=O)N5CCC[C@H]5C(=O)N4[C@@H]3c3ccc(O)cc3)cc2)[C@@]12C(=O)Nc1ccc(I)cc12",
    "SYSTEM": "Lefty1",
    "composite z-score": 0.793
  },
  {
    "COMPOUND": "CN(C)CCCC[C@@H]1NC(=O)[C@H]2C[C@@H](C(=O)NCCCCCNC(=O)CS)[C@@H](c3cccc(OCCO)c3)N2C1=O",
    "SYSTEM": "Lefty1",
    "composite z-score": 1
  },
  {
    "COMPOUND": "C=CCNC(=O)[C@@H]1[C@H]2C(=O)O[C@H](c3ccccc3)[C@H](c3ccccc3)N2[C@H](c2ccc(OCCO)cc2)[C@@]12C(=O)Nc1ccc(C#CCCO)cc12",
    "SYSTEM": "Lefty1",
    "composite z-score": 1.52
  },
  {
    "COMPOUND": "C=CCN1C(=O)[C@]2(O[C@H](CCO)[C@@H]([Si](C)(C)c3ccc(OC)cc3)[C@@H]2C)c2cc(N3C(=O)c4cccc5cccc3c45)ccc21",
    "SYSTEM": "Lefty1",
    "composite z-score": 0.777
  },
  {
    "COMPOUND": "COC(=O)C=C(CC(O)c1cccc(Cl)c1)OC (stereo not drawn)",
    "SYSTEM": "Lefty1",
    "composite z-score": -0.492
  },
  {
    "COMPOUND": "CCCC#C[Si](O[C@H](CC)c1cn([C@H](CO)Cc2ccccc2)nn1)(C(C)C)C(C)C",
    "SYSTEM": "Lefty1",
    "composite z-score": 0.41
  },
  {
    "COMPOUND": "COC(=O)[C@@]1(Cc2ccc(F)cc2)[C@H]2c3cc(C(=O)N(C)C)n(CC4CC4)c3C[C@H]2CN1C(=O)c1ccccc1",
    "SYSTEM": "Lefty1",
    "composite z-score": -0.12
  },
  {
    "COMPOUND": "CC(C)C[C@@H]1NC(=O)[C@H]2C[C@@H](C(=O)NCCCCCCN(C)C)[C@@H](c3ccc(O)cc3)N2C1=O",
    "SYSTEM": "Lefty1",
    "composite z-score": 1.19
  },
  {
    "COMPOUND": "CC1CC/C=C\\[C@H]2OC34C=CCN(Cn5nnc6ccccc65)C(=O)[C@H]3N(C(CO)C(C)C)C(=O)[C@@H]4C2C(=O)O1 (stereo partly drawn)",
    "SYSTEM": "Lefty1",
    "composite z-score": -0.2
  },
  {
    "COMPOUND": "COCCCN1C(=O)[C@@]2(c3ccc([N+](=O)[O-])cc3)CC(=O)N(C3CCCCC3)[C@@H]2c2ccc(CO)cc21",
    "SYSTEM": "Lefty1",
    "composite z-score": 0.655
  },
  {
    "COMPOUND": "O=C1O[C@H](c2ccccc2)[C@H](c2ccccc2)N2[C@H]1[C@@H](C(=O)N1CCN(c3ncccn3)CC1)[C@]1(C(=O)Nc3ccc(C#CC4=CCCCC4)cc31)[C@H]2c1ccc(O)cc1",
    "SYSTEM": "Lefty1",
    "composite z-score": 0.497
  },
  {
    "COMPOUND": "CN1C(=O)C2C=CC(C(O)c3ccc(-c4ccccc4)s3)N(N(c3ccccc3)c3ccccc3)C2C1=O (stereo not drawn)",
    "SYSTEM": "Lefty1",
    "composite z-score": -0.119
  },
  {
    "COMPOUND": "O=C1c2ccccc2[C@](Cc2ccccc2I)(C(=O)NC2CC2)[C@H](c2ccc(CO)cc2)N1C1CCCCC1",
    "SYSTEM": "Lefty1",
    "composite z-score": 0.593
  },
  {
    "COMPOUND": "O=C(c1ccccc1)N1Cc2ccccc2[C@@H]2OC(c3ccc(OCCCO)cc3)=N[C@]2(Cc2ccccc2)C1=O",
    "SYSTEM": "Lefty1",
    "composite z-score": 0.838
  },
  {
    "COMPOUND": "C=C(CCCC)/C(=C/C[C@@H](OC(C)=O)c1ccccc1OCCO)c1cnc2ccccc2c1",
    "SYSTEM": "Lefty1",
    "composite z-score": 0.736
  },
  {
    "COMPOUND": "CCCCCN1CC=CC23O[C@@H]4/C=C\\CCCOC(=O)C4[C@H]2C(=O)N(CCCO)[C@@H]3C1=O (stereo partly drawn)",
    "SYSTEM": "Lefty1",
    "composite z-score": 0.157
  }
]
